# Test system: HT-29
# PROTOCOL DETAILS: NCI tumour cell line growth inhibition, 48 h
The source made the active and inactive calls. Rule as the data show it: active = GI50 up to about 1.1 µM and inactive = higher.
Recorded GI50 by entry

Enquiry: Please give the measured GI50 for this compound: C[n+]1cn(CC(=O)c2ccccc2)c(C(N)=O)c1N
Return: > 100 µM (inactive)

###

# System: SNB-78
# PROTOCOL DETAILS: NCI tumour cell line growth inhibition, 48 h
The source made the active and inactive calls. Cut-off read from the data, not from the text of the source: active = GI50 up to about 1.1 µM and inactive = higher.
Entry note: the call must match one of Yes for active, No for inactive

CCOC(=N)CC(=O)Nc1cccc(C)c1C | No
COc1cc(/C=C(\C#N)C(N)=C(C#N)C#N)cc(O)c1O | No
O=C1O[C@@H](c2ccc3c(c2)OCO3)C2C(=O)O[C@@H](c3ccc4c(c3)OCO4)C12 (stereo not given in full) | No
CCCCCCCCCCCCCCCC(=O)N[C@H]1CCc2cc(OC)c(OC)c(OC)c2-c2ccc(SC)c(=O)cc21 | Yes

Enquiry: Recorded call for N#CC(C(=O)CCCC(=O)Nc1ccccc1[N+](=O)[O-])c1c(Cl)cccc1Cl (stereo not given) ?
Return: No
